renin (Homo sapiens, UniProt P00797) measurements of pIC50, listed per entry.
Sequence (P00797 67-406): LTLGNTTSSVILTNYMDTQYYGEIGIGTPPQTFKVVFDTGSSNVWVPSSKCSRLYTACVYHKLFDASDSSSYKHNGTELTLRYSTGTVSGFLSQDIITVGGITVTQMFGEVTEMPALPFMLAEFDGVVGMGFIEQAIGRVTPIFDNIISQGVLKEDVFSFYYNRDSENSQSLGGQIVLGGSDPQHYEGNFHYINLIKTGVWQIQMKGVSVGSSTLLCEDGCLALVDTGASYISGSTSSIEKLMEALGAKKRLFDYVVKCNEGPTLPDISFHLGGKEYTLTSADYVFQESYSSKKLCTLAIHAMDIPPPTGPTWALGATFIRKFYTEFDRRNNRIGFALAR
# log scale: pIC50 equals minus log10 of the concentration in mol/L

Here are 2 compounds together with their reported answers.
C[N+]12CCC(CC1)C(NC(=O)C[C@H](O)[C@H](CC1CCCCC1)NC(=O)[C@H](Cc1c[nH]cn1)NC(=O)[C@H](Cc1ccccc1)NC(=O)N1CCOCC1)C2 (stereo partly shown) [Example 7, Acetate] | 7.54
O=C(C[C@H](O)[C@H](CC1CCCCC1)NC(=O)[C@H](Cc1c[nH]cn1)NC(=O)[C@H](Cc1ccccc1)NC(=O)N1CCOCC1)NC1CN2CCC1CC2 (stereo partly shown) | 7.52

Form entry - test system: renin (Homo sapiens, UniProt P00797); read-out: pIC50; compound: `CC[C@H](C)CNC(=O)C[C@H](O)[C@H](CC1CCCCC1)NC(=O)[C@H](Cc1c[nH]cn1)NC(=O)[C@H](Cc1ccccc1)NC(=O)N1CCNCC1`
7.37

Form entry - test system: renin (Homo sapiens, UniProt P00797); read-out: pIC50; compound: `CC[C@H](C)CNC(=O)C[C@H](O)[C@H](CC1CCCCC1)NC(=O)[C@H](Cc1c[nH]cn1)NC(=O)[C@H](Cc1ccccc1)NC(=O)N1CCN(C(=O)OC(C)(C)C)CC1`
8.00
